- System: SK-MEL-5 melanoma
- experimentSummary: NCI-60 one-dose screen, 48 h (100 = growth as untreated, 0 = no growth, -100 = all killed)
- studyConditions: 10 µM unless noted
Compounds without any hit were thinned out: in the full panel of roughly 83,000, 20% have a hit.
endpoint: growth (%)

| compound | unitInfo | dataValue |
| --- | --- | --- |
| CC12CCC3C(CC=C4CC(O)CCC43C)C1C/C(=C\N1CCOCC1)C2=O (stereo unspecified) | % | 99.1 |
| Nc1nc(N)c(-c2ccc(Cl)c(Cl)c2)c(/C=C/c2ccc(S(=O)(=O)F)cc2)n1 | % | 84.6 |
| Oc1ccc(Br)cc1CN1CCN(Cc2ccc(Cl)cc2)CC1 | % | -3.7 |
| CCOc1cc(/C=N\Nc2nnc(C)n2N)c(C)cc1N(CCCl)CCCl | % | -47.3 |
| CC1(CF)NC(=O)NC1=O (stereo unspecified) | % | 114 |
| CCC(C)/C=C(C)/C=C/C(=O)c1c(O)c(-c2ccc(O)cc2)c[nH]c1=O (stereo unspecified) | % | 63.4 |
| CC(=O)C1C(=O)N(C)C(=O)N(C)C1=O | % | 99.7 |
| CC(=O)[O][Hg][c]1ccccc1 | % | -87.6 |
| Oc1c(Br)cc(Br)cc1Br.[Cu+2] | % | 102 |
| S=P(Nc1ccccc1)(Nc1ccccc1)c1ccccc1 | % | 92.1 |
| C#CC1(O)CCC2(C)C(CCC3C4CCC(=O)C4(C)CCC32)C1 (stereo unspecified) | % | 96.2 |
| COc1ccc(/C=C(/C(=O)N2CCCC2)c2cc(OC)c(OC)c(OC)c2)cc1N | % | 20 |
| CC1(C)N=C(N)N=C(N)N1c1ccc(CCC(=O)Nc2cccc(S(=O)(=O)F)c2)cc1 | % | 32.9 |
| C/C(=N/OC(=O)N(C)C)c1cc(Cl)ccc1Cl | % | 100 |
| CC(=O)O[C@H]1C[C@H](O[C@H]2[C@@H](O)C[C@H](O[C@H]3[C@@H](O)C[C@H](O[C@H]4CC[C@@]5(C)C(CCC6C5C[C@@H](O)[C@]5(C)[C@@H](C7=CC(=O)OC7)CC[C@]65O)C4)O[C@@H]3C)O[C@@H]2C)O[C@H](C)[C@H]1O[C@@H]1O[C@H](CO)[C@@H](O)[C@H](O)[C@H]1O (stereo partly specified) | % | -100 |
| O=C1C=CC(=O)C2C1C1(Cl)C(Cl)=C(Cl)C2(Cl)C1(Cl)Cl (stereo unspecified) | % | 47.5 |

====

- Tested on: HL-60(TB) leukemia
- experimentSummary: NCI-60 one-dose screen, 48 h (100 = growth as untreated, 0 = no growth, -100 = all killed)
- studyConditions: 10 µM unless noted
This is part of a sample that, as a whole, favours compounds with a hit. Of some 83,000 tested, about 20% had one in any assay.

| compound | growth, % |
| --- | --- |
| CCCCCCCCCCCCCCCCCC1=NC(C)(C)CN1CC(C)O (stereo not drawn) | 61 |
| Oc1ccc(C(c2ccc(O)cc2)c2ccc(Cl)cn2)cc1 | 101 |
| COc1ccc(C/C(C)=C(/c2ccc(OCCN3CCCCCC3)cc2)c2ccc(OC(=O)c3ccccc3)cc2)cc1 | 68.7 |
| O=C(O)c1ccc2cccnc2c1O | -20.5 |
| S=C(Nc1ccc(Cl)cc1)Nc1ccc(Cl)cc1 (tested in a mixture with another compound) | 8.57 |
| O[C@H]1[C@H]2c3cc4c(cc3CN3CCC(=C[C@@H]1O)[C@H]23)OCO4 | 5.02 |
| Cc1cc(=O)[nH]c(=O)n1Cc1cn(-c2c3ccccc3nc3ccccc23)nn1 | 16.3 |
| COc1cc(/C=C2\COc3ccc(-c4ccccc4)cc3C2=O)cc(OC)c1 | 42.9 |
| COc1cccc(C2CC(=O)Nc3cc4c(cc32)CCC4)c1OC (stereo not drawn) | 10.4 |
| Oc1ccc(N=Nc2ccc(N=Nc3ccccc3)cc2)cc1 | 7.35 |
| O=[As]c1ccc(C(=O)c2ccc(Oc3ccccc3)cc2)cc1 (stereo not drawn) | -23.4 |
| O=C1/C(=C/c2ccccc2)CN(C(=O)CCN2CCC(=NO)CC2)C/C1=C\c1ccccc1 | 5.03 |
| COc1ccc(C(=O)/C=C/c2c(C(F)(F)F)nc3sccn23)cc1OC | -35.6 |
| C=C1C(=O)O[C@H]2[C@H]1CC/C(COC(=O)/C=C\C(=O)NCc1ccc(Cn3c(=O)sn(CCCl)c3=O)cc1)=C\CC[C@@]1(C)O[C@@H]21 | -19.4 |
| Cn1cc(-c2csc(-c3cn(C)c4ccc(F)cc34)n2)c2cnccc21 | -44.8 |
| O=C1/C(=C/c2ccccn2)NC(=S)N1c1ccccc1Cl | 26.9 |
| O=C(Cc1ccc(NC(=O)c2cccc(Cl)c2)cc1)NCc1ccccc1 | -14 |
| N#C/C(=C\c1c(-c2ccccc2)[nH]c2ccccc12)S(=O)(=O)c1ccccc1 | -4.39 |
